So I've got a bunch of molecules here, and I need their pIC50 values.
pIC50: −log10 of the molar value.

The measured pIC50 that CC1(C(=O)N[C@H]2CCCC[C@H]3CNC(=O)[C@H]3C[C@@H](C#N)NC(=O)[C@@H]3[C@@H]4[C@H](CN3C2=O)C4(C)C)CCC1 [Example 118] showed for MERS-CoV 3CLpro (Middle East respiratory syndrome-related coronavirus, UniProt K9N638) is 6.00 to 7.00

The measured pIC50 that CC(C)C[C@@H]1NC(=O)[C@@H](Cc2ccccc2)CCCC[C@H]2CNC(=O)[C@H]2C[C@@H](C#N)NC1=O [Example 39] showed for MERS-CoV 3CLpro (Middle East respiratory syndrome-related coronavirus, UniProt K9N638) is 4.70 to 6.00

The measured pIC50 that CC1(C)[C@@H]2[C@H]3C(=O)N[C@H](C#N)C[C@@H]4C(=O)NC[C@@H]4CCCC[C@H](Nc4cc(C(F)(F)F)ncn4)C(=O)N3C[C@@H]21 [Example 163] showed for MERS-CoV 3CLpro (Middle East respiratory syndrome-related coronavirus, UniProt K9N638) is 6.00 to 7.00

The measured pIC50 that CC(C)(C)C(=O)N[C@H]1CCCC[C@H]2CNC(=O)[C@H]2C[C@@H](C#N)NC(=O)[C@@H]2CCCN2C1=O [Example 74] showed for MERS-CoV 3CLpro (Middle East respiratory syndrome-related coronavirus, UniProt K9N638) is 4.70 to 6.00

The measured pIC50 that CC(C)C[C@H]1C(=O)N[C@H](C#N)C[C@@H]2C(=O)NC[C@@H]2CCCC[C@H](NC(=O)C(C)(C)C)C(=O)N1C [Example 57] showed for MERS-CoV 3CLpro (Middle East respiratory syndrome-related coronavirus, UniProt K9N638) is 4.70 to 6.00

The measured pIC50 that CC1(C)[C@@H]2[C@H]3C(=O)N[C@H](C#N)C[C@@H]4C(=O)NC[C@@H]4CCCC[C@H](NC(=O)C4(C(F)(F)F)CC4)C(=O)N3C[C@@H]21 [Example 117] showed for MERS-CoV 3CLpro (Middle East respiratory syndrome-related coronavirus, UniProt K9N638) is > 7.00
